Molecular target: Dual specificity protein kinase CLK3 (Homo sapiens, UniProt P49761)
Sequence (P49761 whole entry): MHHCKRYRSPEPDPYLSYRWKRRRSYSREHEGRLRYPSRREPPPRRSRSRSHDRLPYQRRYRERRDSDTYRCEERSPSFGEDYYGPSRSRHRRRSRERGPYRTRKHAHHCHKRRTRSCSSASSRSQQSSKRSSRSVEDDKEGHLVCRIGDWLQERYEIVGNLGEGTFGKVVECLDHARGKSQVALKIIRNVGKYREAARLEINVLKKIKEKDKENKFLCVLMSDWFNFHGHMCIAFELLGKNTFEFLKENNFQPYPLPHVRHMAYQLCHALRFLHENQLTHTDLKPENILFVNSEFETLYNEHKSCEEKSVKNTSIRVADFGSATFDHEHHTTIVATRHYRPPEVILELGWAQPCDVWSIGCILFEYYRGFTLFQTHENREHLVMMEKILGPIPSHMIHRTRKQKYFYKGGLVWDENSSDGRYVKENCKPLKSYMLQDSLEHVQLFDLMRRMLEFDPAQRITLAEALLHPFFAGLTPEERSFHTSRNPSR
Assay: biochemical
Type: cell-based, Sf9
Endpoint name: IC50 (µM)

Example results:
O=c1c2c(O)cc(O)cc2oc2c(O)ccc(O)c12 [DEMETHYLBELLIDIFOLIN] ... 7.53
O=C1NC(NC23CC4CC(CC(C4)C2)C3)=N/C1=C\c1ccc2ncsc2c1 ... 0.812
O=C(O[C@@H]1Cc2c(O)cc(O)cc2O[C@@H]1c1cc(O)c(O)c(O)c1)c1cc(O)c(O)c(O)c1 [EPIGALOCATECHIN GALLATE] ... 2.58

I. O=C1NC(=Nc2c(Cl)cccc2Cl)S/C1=C\c1ccc2nccnc2c1
II. Cn1cc(-c2ccc3cnc(NC(=O)C4CCN(S(C)(=O)=O)CC4)cc3c2)cn1
III. CC(C)CN1CCC(C(=O)Nc2cc3cc(-c4cnn(C)c4)ccc3cn2)CC1
Data request: Order each entry by recorded IC50, climbing from the minimum. Returns: the labels arranged in the requested order.
Data returned: I, II, III

###

Target: Glycogen synthase kinase-3 beta (Homo sapiens)
Sequence (P49841 whole entry): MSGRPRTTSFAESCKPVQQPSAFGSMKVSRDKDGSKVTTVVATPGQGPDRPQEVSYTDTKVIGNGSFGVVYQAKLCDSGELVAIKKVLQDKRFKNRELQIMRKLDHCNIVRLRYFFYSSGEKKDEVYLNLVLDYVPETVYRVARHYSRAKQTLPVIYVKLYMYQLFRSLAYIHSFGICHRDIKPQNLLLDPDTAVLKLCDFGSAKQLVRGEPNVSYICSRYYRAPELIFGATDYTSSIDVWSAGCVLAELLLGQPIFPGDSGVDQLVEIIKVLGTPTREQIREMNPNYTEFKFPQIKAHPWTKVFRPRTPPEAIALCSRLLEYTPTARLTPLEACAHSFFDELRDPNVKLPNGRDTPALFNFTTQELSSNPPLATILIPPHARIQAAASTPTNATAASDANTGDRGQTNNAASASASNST
pKd: −log10 of the molar value.
Endpoint name: pKd

Example results:
COc1ccc2nc3ccc(OC)cc3c(SCCCN)c2c1 ... 5.57
CN1C(=O)/C(=C/c2ccc3c(c2)OCO3)N=C1N [LEUCETTAMINE B] ... < 5.00
O=c1c2c(O)cc(O)cc2oc2c(O)ccc(O)c12 [DEMETHYLBELLIDIFOLIN] ... < 5.00
CCOC(=O)c1c(/C(C#N)=C\N)c2ccc(Cl)c(Cl)c2n1C ... < 5.00
COc1cc(N2CCN(C)CC2)ccc1Nc1nccc(-c2cn(C)c3cnccc23)n1 ... < 5.00
Oc1ccc(-c2cnc3[nH]cc(-c4ccc(F)cc4)c3c2)cc1O ... < 5.00
COc1cc(/C=C/C(=O)CC(=O)/C=C/c2ccc(O)c(OC)c2)ccc1O [CURCUMIN] ... < 5.00
CN(C)c1nccc(-c2cnn3ncccc23)n1 ... < 5.00

Data request: Which pKd is listed for CCN1/C(=C/C(C)=O)Sc2ccc(O)cc21 ?
Data returned: 5.78

Data request: Which pKd is listed for CCNc1cc(Nc2ccc(C(=O)N3CCC(N4CCOCC4)CC3)cc2OC)nc2[nH]cc(C(F)(F)F)c12 ?
Data returned: < 5.00

Data request: Which pKd is listed for Cc1ccc(-n2cc(COc3cccc4cnc(Nc5cccc(Cl)c5)nc34)nn2)c([N+](=O)[O-])c1 ?
Data returned: < 5.00

###

Molecular target: Dual specificity tyrosine-phosphorylation-regulated kinase 4 (Homo sapiens, UniProt Q9NR20)
Assay: biochemical
Endpoint name: IC50 (µM)

Example results:
CC(C)Oc1ccc(F)c(-c2cnc(N)c(C(=O)Nc3cnccc3N3CCC[C@@H](C(=O)O)C3)n2)c1 ... 7.33
COc1ccc2c(c1)[nH]c1c(C)nccc12 [HARMINE] ... 8.36

P. COc1ccc2c3ccnc(Cl)c3n(CC#N)c2c1
Q. CC(C)CN1CCC(C(=O)Nc2cc3cc(-c4cnn(C)c4)ccc3cn2)CC1
R. Oc1ccc(-c2n[nH]c3ncc(-c4ccc(O)c(O)c4)cc23)cc1
Data request: Order each entry by recorded IC50, climbing from the minimum. Returns: the labels arranged in the requested order.
Data returned: R, Q, P
(R: 0.0268 µM, Q: 2.48 µM, P: 8.37 µM)

###

Target: Dual specificity tyrosine-phosphorylation-regulated kinase 4 (Homo sapiens)
Sequence (Q9NR20 whole entry): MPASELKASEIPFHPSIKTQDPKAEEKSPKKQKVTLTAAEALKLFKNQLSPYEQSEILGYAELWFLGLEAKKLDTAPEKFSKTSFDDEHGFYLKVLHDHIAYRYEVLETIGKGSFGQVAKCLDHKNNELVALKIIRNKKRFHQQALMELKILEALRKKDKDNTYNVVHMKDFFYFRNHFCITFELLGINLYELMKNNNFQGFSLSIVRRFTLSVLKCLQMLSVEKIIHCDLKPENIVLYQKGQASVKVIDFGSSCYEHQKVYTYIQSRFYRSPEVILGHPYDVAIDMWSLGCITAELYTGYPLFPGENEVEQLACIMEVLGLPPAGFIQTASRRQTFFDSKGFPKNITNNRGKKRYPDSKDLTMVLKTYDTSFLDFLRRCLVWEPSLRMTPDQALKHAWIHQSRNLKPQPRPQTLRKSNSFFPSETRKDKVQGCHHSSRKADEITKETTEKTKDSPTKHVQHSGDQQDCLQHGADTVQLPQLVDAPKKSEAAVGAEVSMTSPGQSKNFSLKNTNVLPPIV
Assay: biochemical
pIC50: −log10 of the molar value.
Endpoint name: pIC50

1. COc1ccc2nc3ccc(OC)cc3c(SCCCN)c2c1
2. Cc1ccc([N+](=O)[O-])cc1S(=O)(=O)N(C)/N=C/c1cnc2ccc(Br)cn12
Data request: Between the entries labelled 1 and 2 , which has a larger pIC50 value on record? Identify your selection by its label.
Data returned: 1

###

Target: Cyclin-dependent kinase 5/CDK5 activator 1 (Homo sapiens, UniProt Q00535)
Sequence (Q00535 whole entry): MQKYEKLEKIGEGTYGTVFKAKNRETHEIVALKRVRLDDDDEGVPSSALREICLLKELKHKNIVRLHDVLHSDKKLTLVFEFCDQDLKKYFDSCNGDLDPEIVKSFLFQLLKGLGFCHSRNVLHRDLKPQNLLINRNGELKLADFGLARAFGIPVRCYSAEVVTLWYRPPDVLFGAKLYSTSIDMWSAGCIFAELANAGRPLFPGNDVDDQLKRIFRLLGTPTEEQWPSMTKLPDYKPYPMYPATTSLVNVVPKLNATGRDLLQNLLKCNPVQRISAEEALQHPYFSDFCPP
Sequence (Q15078 whole entry, further chain): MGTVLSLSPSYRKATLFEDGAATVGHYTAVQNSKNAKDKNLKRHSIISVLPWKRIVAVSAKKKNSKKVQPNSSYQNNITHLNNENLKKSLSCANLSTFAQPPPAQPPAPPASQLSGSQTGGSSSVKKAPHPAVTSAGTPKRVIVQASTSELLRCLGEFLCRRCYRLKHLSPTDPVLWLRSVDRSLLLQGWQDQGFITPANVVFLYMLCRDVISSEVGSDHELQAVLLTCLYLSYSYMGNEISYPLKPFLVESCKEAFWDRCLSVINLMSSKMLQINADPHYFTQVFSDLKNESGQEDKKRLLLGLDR
Test: biochemical
pIC50: −log10 of the molar value.
# key: entry, value: pIC50

Example results:
CC(C)Oc1ccc(F)c(-c2cnc(N)c(C(=O)Nc3cnccc3N3CCC[C@@H](C(=O)O)C3)n2)c1 ... 6.33
Cc1cccc(N(C)c2nccc(-c3cnn4ncccc34)n2)c1 ... < 5.00
COc1cc(N2CCN(C)CC2)ccc1Nc1nccc(-c2cn(C)c3cnccc23)n1 ... 5.98

Data request: Which pIC50 is listed for O=C1NC(=Nc2c(Cl)cccc2Cl)S/C1=C\c1ccc2nccnc2c1 ?
Data returned: < 5.00

Data request: Which pIC50 is listed for CC(C)(c1ccc(O)cc1)c1ccc(O)cc1 [BISPHENOL A] ?
Data returned: < 5.00

Data request: Which pIC50 is listed for COc1ccc2c3ccnc(Cl)c3n(CC#N)c2c1 ?
Data returned: < 5.00

Data request: Which pIC50 is listed for COc1cc(/C=C/C(=O)CC(=O)/C=C/c2ccc(O)c(OC)c2)ccc1O [CURCUMIN] ?
Data returned: < 5.00

Data request: Which pIC50 is listed for O=C(O)c1ccc2c(c1)nc(Nc1cccc(Cl)c1)c1ccncc12 [SILMITASERTIB] ?
Data returned: < 5.00

Data request: Which pIC50 is listed for COc1cc(CCc2c(O)ccc(O[C@@H]3O[C@H](CO)[C@@H](O)[C@H](O)[C@H]3O)c2C(C)=O)ccc1O [SCORZODIHYDROSTILBENE A] ?
Data returned: < 5.00

Data request: Which pIC50 is listed for CCOC(=O)c1c(/C(C#N)=C\N)c2ccc(Cl)c(Cl)c2n1C ?
Data returned: < 5.00

Data request: Which pIC50 is listed for O=C1Nc2cc(S(=O)(=O)Cc3c(Cl)cccc3Cl)ccc2S/C1=C\c1ccc(O)c([N+](=O)[O-])c1 ?
Data returned: < 5.00

Data request: Which pIC50 is listed for O=C1NC(NC23CC4CC(CC(C4)C2)C3)=N/C1=C\c1ccc2ncsc2c1 ?
Data returned: 6.61

Data request: Which pIC50 is listed for COc1ccc(/C=C2\SC(=S)NC2=O)cc1C#C[Si](C)(C)C ?
Data returned: < 5.00

Data request: Which pIC50 is listed for CN1CCN(c2cc(C(=O)Nc3cc4cc(-c5cnn(C)c5)ccc4cn3)ccn2)CC1 ?
Data returned: 5.40

###

Target: UniProt:Q9HAZ1
Sequence (Q9HAZ1 whole entry): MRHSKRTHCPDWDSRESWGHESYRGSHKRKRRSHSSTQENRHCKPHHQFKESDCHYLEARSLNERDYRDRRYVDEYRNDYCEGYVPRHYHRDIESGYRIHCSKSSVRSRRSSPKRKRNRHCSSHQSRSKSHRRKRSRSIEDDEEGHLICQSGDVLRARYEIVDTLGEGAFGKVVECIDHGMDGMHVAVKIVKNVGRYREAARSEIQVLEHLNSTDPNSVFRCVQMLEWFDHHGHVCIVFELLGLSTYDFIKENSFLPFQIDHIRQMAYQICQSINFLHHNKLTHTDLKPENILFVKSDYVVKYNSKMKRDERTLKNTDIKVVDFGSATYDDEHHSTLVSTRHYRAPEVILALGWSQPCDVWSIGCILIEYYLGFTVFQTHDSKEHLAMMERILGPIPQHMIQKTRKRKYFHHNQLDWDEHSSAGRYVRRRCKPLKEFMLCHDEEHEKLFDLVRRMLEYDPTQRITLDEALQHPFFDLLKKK
pIC50: −log10 of the molar value.
Endpoint name: pIC50

Example results:
COc1ccc2c(c1)[nH]c1c(C)nccc12 [HARMINE] ... 6.99
O=C1NC(=Nc2c(Cl)cccc2Cl)S/C1=C\c1ccc2nccnc2c1 ... 7.85
O=c1c2c(O)cc(O)cc2oc2c(O)ccc(O)c12 [DEMETHYLBELLIDIFOLIN] ... 6.83
CCOC(=O)c1c(/C(C#N)=C\N)c2ccc(Cl)c(Cl)c2n1C ... 7.83

A. CN1CCN(C(=O)C(C)(C)c2ccc(C(=O)Cc3cn4cc(-c5ccncc5)ccc4n3)cc2)CC1
B. COc1ccc2nc3c(CO)cc(OC)cc3c(SC[C@H]3CCNC3)c2c1
Data request: Compare A and B and name the one whose reported pIC50 is smaller. Identify your selection by its label.
Data returned: B

I. CN(C)c1nccc(-c2cnn3ncccc23)n1
II. Cc1cccc(N(C)c2nccc(-c3cnn4ncccc34)n2)c1
III. CC(C)CN1CCC(C(=O)Nc2cc3cc(-c4cnn(C)c4)ccc3cn2)CC1
IV. Oc1ccc(-c2n[nH]c3ncc(-c4ccc(O)c(O)c4)cc23)cc1
Data request: Descending sort on pIC50 required. Returns: the labels arranged in the requested order.
Data returned: IV, III, II, I
(IV: 8.33, III: 7.62, II: 7.04, I: 6.66)

P. COC(=N)c1nc2ccc3ncnc(Nc4ccc(OC)cc4F)c3c2s1
Q. Cc1nc2ccc(-c3cc(N)nc(N)c3)nc2n1C(C)C
Data request: Between the entries labelled P and Q , which has a larger pIC50 value on record? Identify your selection by its label.
Data returned: Q
